Target: hPPARdelta (Homo sapiens)
Construct: expressed in transfected cells; host or cells: COS-7 (monkey kidney fibroblasts)
Sequence (Q03181 211-439 limits assumed): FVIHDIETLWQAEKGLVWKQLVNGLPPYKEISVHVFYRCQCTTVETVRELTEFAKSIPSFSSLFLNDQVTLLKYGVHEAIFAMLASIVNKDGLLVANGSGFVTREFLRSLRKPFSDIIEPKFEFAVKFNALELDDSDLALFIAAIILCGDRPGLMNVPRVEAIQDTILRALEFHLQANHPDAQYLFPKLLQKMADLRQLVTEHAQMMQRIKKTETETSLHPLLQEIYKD
Test: PPAR activation: Gal4-hPPARδ chimera luciferase transactivation in COS-7 cells, Method 1
Assay type: cell-based
Details: COS-7, 24 h, maximum percentage response relative to the reference GW501516, read-out: hPPARdelta % max
Attribute measured: Emax (%)

Consider the reported Emax for these compounds:
Query: Entry under review: CC(C)(Oc1ccc(CCC(=O)c2ccc(-c3ccc(C(F)(F)F)cc3)s2)c(Cl)c1Cl)C(=O)O . Reported Emax?
Reply: 91

Query: Entry under review: CC(C)(Oc1ccc(CCC(=O)c2ccc(-c3ccc(C(F)(F)F)cc3)s2)c(F)c1F)C(=O)O . Reported Emax?
Reply: 105

Query: Entry under review: CC(C)(Oc1ccc(CCC(=O)c2ccc(-c3ccc(C(F)(F)F)cc3)s2)c(Cl)c1)C(=O)O . Reported Emax?
Reply: 97

Query: Entry under review: Cc1cc(CCC(=O)c2ccc(-c3ccc(C(F)(F)F)cc3)s2)cc(C)c1OC(C)(C)C(=O)O . Reported Emax?
Reply: 86

P. CC(C)(Oc1ccc(CCC(=O)c2ccc(-c3ccc(OC(F)(F)F)cc3)s2)c(Cl)c1Cl)C(=O)O
Q. CCC(Oc1ccc(CCC(=O)c2ccc(-c3ccc(C(F)(F)F)cc3)s2)cc1Br)C(=O)O (stereo not shown)
R. CC(C)(CCCOc1ccc(CCC(=O)c2ccc(-c3ccc(C(F)(F)F)cc3)s2)c(Cl)c1Cl)C(=O)O
Query: Thanks in advance: please rank these 3 entries by Emax, highest to lowest. Put the labels in the requested order and write them down.
Reply: P, Q, R

---

target: hPPARgamma (Homo sapiens, UniProt P37231); construct: expressed in transfected cells; host or cells: COS-7 (monkey kidney fibroblasts); experiment: PPAR activation: Gal4-hPPARγ chimera luciferase transactivation in COS-7 cells, Method 2; assay type: cell-based; details: COS-7, 24 h; maximum percentage response relative to the reference rosiglitazone; Method 2; read-out: hPPARgamma % max
Sequence (P37231 238-503 limits assumed): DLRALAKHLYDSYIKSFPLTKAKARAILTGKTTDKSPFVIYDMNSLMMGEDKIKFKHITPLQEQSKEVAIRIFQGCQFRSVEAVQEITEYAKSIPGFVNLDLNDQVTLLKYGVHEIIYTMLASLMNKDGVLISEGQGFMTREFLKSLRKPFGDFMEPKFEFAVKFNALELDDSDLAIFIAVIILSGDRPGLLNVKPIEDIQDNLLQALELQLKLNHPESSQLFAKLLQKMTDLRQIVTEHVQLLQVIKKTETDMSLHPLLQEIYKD
Attribute measured: Emax (%)

Query: Entry under review: CSc1ccc(-c2ccc(C(=O)CCc3ccc(OC(C)(C)C(=O)O)c(Cl)c3Cl)s2)cc1 . Reported Emax?
Reply: 62

Query: Entry under review: CC(C)(Oc1ccc(CCC(OCc2cccnc2)c2ccc(-c3ccc(C(F)(F)F)cc3)s2)c(Cl)c1Cl)C(=O)O (stereo not shown) . Reported Emax?
Reply: 52

A. CCOC(CCc1ccc(OC(C)(C)C(=O)O)c(Cl)c1Cl)c1ccc(-c2ccc(C(F)(F)F)cc2)s1 (stereo not shown)
B. CC(C)(Oc1ccc(CCC(OCc2ccc(I)cc2)c2ccc(-c3ccc(C(F)(F)F)cc3)s2)c(Cl)c1Cl)C(=O)O (stereo not shown)
Query: Hello, I am sorting some records. Could you say if A or B has the smaller Emax value? Mark your selection by writing its label.
Reply: A
